Data provenance: paper PMC11078746

- PROCEDURE_DETAILS: In vitro unbound fraction
- Assay type: in vitro ADME
ASSAY_METRIC: fraction unbound
Just the number, please, no unit attached.

Request: Give the measured fraction unbound of CCc1c(N2CCN(C(=O)c3ncnc(C)c3O)CC2)c(=O)n2nc(C3=CCOCC3)nc2n1CC(=O)Nc1ccc(C(F)(F)F)cc1Cl .
Response: 0.37

----------
- PROCEDURE_DETAILS: Compound 3 blood PK in SW48 tumour-bearing mice
- Format: in vivo, mouse
- SETUP_CONDITIONS: female, mouse, whole blood, oral, 15 mg/kg, 15mg/kg BID; 0.5 h; read-out: Mean total blood concentration
ASSAY_METRIC: concentration at 0.5 h (nM)
Respond numerically; units are nM and should not be typed.

Request: Give the measured concentration at 0.5 h of CCc1c(N2CCN(C(=O)c3ncccc3O)CC2)c(=O)n2nc(C3=CCOCC3)nc2n1CC(=O)Nc1ccc(C(F)(F)F)cc1C .
Response: 620

----------
- TARGET_OR_SYSTEM: WRN D1D2 C727S (Homo sapiens, UniProt Q14191, C727S)
- Construct: the minimal D1–D2 helicase core (WRN 517–945)
- Sequence (Q14191 517-945 C727S): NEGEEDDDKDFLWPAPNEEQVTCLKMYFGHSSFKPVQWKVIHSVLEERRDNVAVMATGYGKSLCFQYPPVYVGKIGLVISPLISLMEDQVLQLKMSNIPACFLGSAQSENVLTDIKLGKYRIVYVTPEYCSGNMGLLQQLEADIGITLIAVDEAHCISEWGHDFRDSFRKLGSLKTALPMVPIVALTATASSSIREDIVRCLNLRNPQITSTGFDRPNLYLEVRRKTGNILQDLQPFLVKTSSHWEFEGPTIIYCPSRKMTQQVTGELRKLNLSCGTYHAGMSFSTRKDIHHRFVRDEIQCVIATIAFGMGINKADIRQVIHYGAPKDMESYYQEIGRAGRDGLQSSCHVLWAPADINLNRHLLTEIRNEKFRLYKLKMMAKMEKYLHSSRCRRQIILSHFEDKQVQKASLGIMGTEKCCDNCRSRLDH
- PROCEDURE_DETAILS: ATPase assay
- SETUP_CONDITIONS: read-out: Biochemical IC50 ATPase WRN D1D2 C727S
ASSAY_METRIC: IC50 (µM)
Respond numerically; units are µM and should not be typed.

Request: API: value(readout=IC50, system=WRN D1D2 C727S (Homo sapiens, UniProt Q14191, C727S)) for record CC(=O)N1CCN(c2c(C)n(CC(=O)Nc3ccc(Cl)cc3)c3nc(N4CCN(C(=O)OC(C)(C)C)CC4)nn3c2=O)CC1 [compound 5]
Response: 25

----------
- PROCEDURE_DETAILS: HRO761 blood PK in SW48 tumour-bearing mice
- Type: in vivo, mouse
- SETUP_CONDITIONS: female, mouse, whole blood, po, 40 mg/kg; read-out: AUCb, u above GI90, u
ASSAY_METRIC: AUC (µM·h)
Respond numerically; units are µM·h and should not be typed.

Request: Give the measured AUC of CCc1c(N2CCN(C(=O)c3ncnc(C)c3O)CC2)c(=O)n2nc(C3=CCOCC3)nc2n1CC(=O)Nc1ccc(C(F)(F)F)cc1Cl .
Response: 4

----------
- PROCEDURE_DETAILS: HRO761 blood PK in SW48 tumour-bearing mice
- Type: in vivo, mouse
- SETUP_CONDITIONS: female, mouse, whole blood, oral, 120 mg/kg, Free HRO761 blood concentration; 0.5 h; single mouse
ASSAY_METRIC: concentration at 0.5 h (µM)
Respond numerically; units are µM and should not be typed.

Request: Give the measured concentration at 0.5 h of CCc1c(N2CCN(C(=O)c3ncnc(C)c3O)CC2)c(=O)n2nc(C3=CCOCC3)nc2n1CC(=O)Nc1ccc(C(F)(F)F)cc1Cl .
Response: 14.8

----------
- PROCEDURE_DETAILS: Compound 3 blood PK in SW48 tumour-bearing mice
- Type: in vivo, mouse
- SETUP_CONDITIONS: female, mouse, whole blood, oral, 150 mg/kg, 150mg/kg BID; 0.5 h; read-out: Mean total blood concentration
ASSAY_METRIC: concentration at 0.5 h (µM)
Respond numerically; units are µM and should not be typed.

Request: Give the measured concentration at 0.5 h of CCc1c(N2CCN(C(=O)c3ncccc3O)CC2)c(=O)n2nc(C3=CCOCC3)nc2n1CC(=O)Nc1ccc(C(F)(F)F)cc1C [compound 3] .
Response: 22.9

----------
- PROCEDURE_DETAILS: Compound 3 blood PK in SW48 tumour-bearing mice
- Type: in vivo, mouse
- SETUP_CONDITIONS: female, mouse, whole blood, oral, 150 mg/kg, 150mg/kg BID; 1 h; read-out: Mean total blood concentration
ASSAY_METRIC: concentration at 1 h (µM)
Respond numerically; units are µM and should not be typed.

Request: Give the measured concentration at 1 h of CCc1c(N2CCN(C(=O)c3ncccc3O)CC2)c(=O)n2nc(C3=CCOCC3)nc2n1CC(=O)Nc1ccc(C(F)(F)F)cc1C .
Response: 14.7

----------
- PROCEDURE_DETAILS: CL in vivo, intravenous bolus
- SETUP_CONDITIONS: whole blood, 1 mg/kg; mouse; intravenous bolus 1 mg per kg
ASSAY_METRIC: clearance
Hi, when you answer, please include the unit after the number. Thanks!

Request: Give the measured clearance of CCc1c(N2CCN(C(=O)c3ncnc(C)c3O)CC2)c(=O)n2nc(C3=CCOCC3)nc2n1CC(=O)Nc1ccc(C(F)(F)F)cc1Cl .
Response: 29 mL/min/kg

----------
- PROCEDURE_DETAILS: HRO761 blood PK in SW48 tumour-bearing mice
- Type: in vivo, mouse
- SETUP_CONDITIONS: female, mouse, whole blood, oral, 120 mg/kg, Free HRO761 blood concentration, Mean; 0.5 h
ASSAY_METRIC: concentration at 0.5 h
Hi, when you answer, please include the unit after the number. Thanks!

Request: Give the measured concentration at 0.5 h of CCc1c(N2CCN(C(=O)c3ncnc(C)c3O)CC2)c(=O)n2nc(C3=CCOCC3)nc2n1CC(=O)Nc1ccc(C(F)(F)F)cc1Cl .
Response: 15.9 µM

----------
- PROCEDURE_DETAILS: HRO761 blood PK in SW48 tumour-bearing mice
- Format: in vivo, mouse
- SETUP_CONDITIONS: female, mouse, whole blood, oral, 60 mg/kg, Free HRO761 blood concentration, Mean; 4 h
ASSAY_METRIC: concentration at 4 h (µM)
Respond numerically; units are µM and should not be typed.

Request: Give the measured concentration at 4 h of CCc1c(N2CCN(C(=O)c3ncnc(C)c3O)CC2)c(=O)n2nc(C3=CCOCC3)nc2n1CC(=O)Nc1ccc(C(F)(F)F)cc1Cl .
Response: 0.32

----------
- PROCEDURE_DETAILS: Compound 3 blood PK in SW48 tumour-bearing mice
- Assay type: in vivo, mouse
- SETUP_CONDITIONS: female, mouse, whole blood, oral, 150 mg/kg, 150mg/kg BID; 4 h; read-out: Mean total blood concentration
ASSAY_METRIC: concentration at 4 h (nM)
Respond numerically; units are nM and should not be typed.

Request: Give the measured concentration at 4 h of CCc1c(N2CCN(C(=O)c3ncccc3O)CC2)c(=O)n2nc(C3=CCOCC3)nc2n1CC(=O)Nc1ccc(C(F)(F)F)cc1C [compound 3] .
Response: 1670

----------
- PROCEDURE_DETAILS: Compound 3 blood PK in SW48 tumour-bearing mice
- Type: in vivo, mouse
- SETUP_CONDITIONS: female, mouse, whole blood, oral, 50 mg/kg, 50mg/kg BID; 2 h; single mouse; read-out: Total blood concentration
ASSAY_METRIC: concentration at 2 h (nM)
Respond numerically; units are nM and should not be typed.

Request: Give the measured concentration at 2 h of CCc1c(N2CCN(C(=O)c3ncccc3O)CC2)c(=O)n2nc(C3=CCOCC3)nc2n1CC(=O)Nc1ccc(C(F)(F)F)cc1C .
Response: 2180

----------
- PROCEDURE_DETAILS: Compound 3 blood PK in SW48 tumour-bearing mice
- Assay type: in vivo, mouse
- SETUP_CONDITIONS: female, mouse, whole blood, oral, 50 mg/kg, 50mg/kg BID; 4 h; read-out: Mean total blood concentration
ASSAY_METRIC: concentration at 4 h (nM)
Respond numerically; units are nM and should not be typed.

Request: Give the measured concentration at 4 h of CCc1c(N2CCN(C(=O)c3ncccc3O)CC2)c(=O)n2nc(C3=CCOCC3)nc2n1CC(=O)Nc1ccc(C(F)(F)F)cc1C .
Response: 520

----------
I'd be grateful if you could share measured pIC50 for these entries.
- TARGET_OR_SYSTEM: WRN D1D2RH (Asn517–Pro1238) (Homo sapiens, UniProt Q14191)
- Construct: 10 nM WRN D1D2RH (protein construct (Asn517–Pro1238)); His tag (N, cleaved yes); ZZ tag (N, cleaved yes); made in house; host or cells: Sf21 insect cells (baculovirus)
- Sequence (Q14191 517-1238): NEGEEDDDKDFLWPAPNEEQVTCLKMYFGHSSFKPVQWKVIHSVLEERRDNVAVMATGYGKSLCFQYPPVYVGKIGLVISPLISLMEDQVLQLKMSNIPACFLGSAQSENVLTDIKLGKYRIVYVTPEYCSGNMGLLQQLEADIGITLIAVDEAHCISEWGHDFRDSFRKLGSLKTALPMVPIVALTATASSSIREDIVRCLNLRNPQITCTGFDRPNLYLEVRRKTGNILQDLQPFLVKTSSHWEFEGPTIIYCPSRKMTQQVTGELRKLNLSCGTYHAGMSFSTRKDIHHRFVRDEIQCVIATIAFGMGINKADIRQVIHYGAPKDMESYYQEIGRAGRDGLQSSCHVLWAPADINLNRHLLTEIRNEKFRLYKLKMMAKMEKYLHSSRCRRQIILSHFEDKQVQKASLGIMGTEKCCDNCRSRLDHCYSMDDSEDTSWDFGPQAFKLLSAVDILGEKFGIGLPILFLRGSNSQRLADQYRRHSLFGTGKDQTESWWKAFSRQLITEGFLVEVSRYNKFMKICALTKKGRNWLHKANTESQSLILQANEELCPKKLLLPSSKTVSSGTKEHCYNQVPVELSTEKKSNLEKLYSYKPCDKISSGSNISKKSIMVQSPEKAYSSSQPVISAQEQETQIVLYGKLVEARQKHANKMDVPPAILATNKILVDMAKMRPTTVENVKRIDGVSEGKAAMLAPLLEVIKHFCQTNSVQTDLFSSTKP
- PROCEDURE_DETAILS: Cy5-ATPγS binding assay using TR-FRET (ATP binding)
- SETUP_CONDITIONS: author rebuttal; compound numbers of an earlier manuscript version; read-out: Cy5-ATPγS binding assay in TR-FRET - IC50
pIC50 is a log-scale quantity: -log10 of the concentration expressed in molar.

Request: API: value(readout=pIC50, system=WRN D1D2RH (Asn517–Pro1238) (Homo sapiens, UniProt Q14191)) for record Cc1c(N2CCN(C(=O)c3c(F)ccc(F)c3O)CC2)c(=O)n2nc(C3=CCOCC3)nc2n1CC(=O)Nc1ccc(C(F)(F)F)cc1
Response: 8.05

Request: API: value(readout=pIC50, system=WRN D1D2RH (Asn517–Pro1238) (Homo sapiens, UniProt Q14191)) for record CC(=O)N1CCN(c2c(C)n(CC(=O)Nc3ccc(Cl)cc3)c3nc(N4CCN(C(=O)OC(C)(C)C)CC4)nn3c2=O)CC1
Response: 7.89

Request: API: value(readout=pIC50, system=WRN D1D2RH (Asn517–Pro1238) (Homo sapiens, UniProt Q14191)) for record Cc1cccc(NC(=O)Cn2c(C)cc(=O)n3nc(-c4cccs4)nc23)c1C
Response: 5.48
